ASSAY_TEXT: qHTS for Inhibitors of human tyrosyl-DNA phosphodiesterase 1 (TDP1): qHTS in cells in presence of CPT; note: nearly all actives have a fitted effect of over 55% in size; note: potency is the fitted concentration of half-maximal effect
CONDITION_LABEL: chicken DT40 Tdp1-/-;hTDP1 cells + 20 nM CPT, ATP luminescence, 48 h; series mostly up to 46.2 µM
In all, about 420,000 compounds went through this assay and about 50,000 (12%) were called active. Not shown: some 26% with an inconclusive outcome. For the sample, actives were picked, then their nearest neighbours and some compounds at random.
RECORDED_ENDPOINT: Potency

[
  {
    "MOLECULE": "COc1ccc(NC2CCCN(C(=O)c3ccccc3-c3ncc[nH]3)C2)cc1 (stereo not given)",
    "RECORDED_ENDPOINT": "Potency",
    "EXPERIMENTAL_VALUE": "inactive"
  },
  {
    "MOLECULE": "COc1ccc(C2=NOC(C(=O)NCc3ccco3)C2)cc1OC (stereo not given)",
    "RECORDED_ENDPOINT": "Potency",
    "EXPERIMENTAL_VALUE": "2.59 µM (active)"
  },
  {
    "MOLECULE": "Cc1ccc(CN2CCN(/N=C/c3cccnc3)CC2)c(C)c1",
    "RECORDED_ENDPOINT": "Potency",
    "EXPERIMENTAL_VALUE": "inactive"
  },
  {
    "MOLECULE": "CCOc1cc(/C=C2\\C(=N)N3N=C(C)SC3=NC2=O)ccc1OCCOc1ccccc1",
    "RECORDED_ENDPOINT": "Potency",
    "EXPERIMENTAL_VALUE": "inactive"
  },
  {
    "MOLECULE": "O=C(CSc1nnnn1-c1ccccc1)NCc1ccco1",
    "RECORDED_ENDPOINT": "Potency",
    "EXPERIMENTAL_VALUE": "inactive"
  },
  {
    "MOLECULE": "COc1ccc(C(=O)CSc2nnc(NC(=O)C3CC(=O)N(c4cccc(OC)c4)C3)s2)cc1 (stereo not given)",
    "RECORDED_ENDPOINT": "Potency",
    "EXPERIMENTAL_VALUE": "inactive"
  },
  {
    "MOLECULE": "CC(C)(C)n1nnnc1C(c1ccc(F)cc1)N1CCN(Cc2ccc3c(c2)OCO3)CC1 (stereo not given)",
    "RECORDED_ENDPOINT": "Potency",
    "EXPERIMENTAL_VALUE": "inactive"
  },
  {
    "MOLECULE": "CCCc1cc(=O)[nH]c2nnc(SCC(=O)Nc3nnc(SCC)s3)n12",
    "RECORDED_ENDPOINT": "Potency",
    "EXPERIMENTAL_VALUE": "inactive"
  }
]

stdin: Entry under review: `Cc1cccc(NC(=O)c2ccc(COc3ccccc3[N+](=O)[O-])o2)n1` . Reported Potency?
stdout: inactive

stdin: Entry under review: Fc1ccccc1C(c1nnnn1Cc1ccc2c(c1)OCO2)N1CCN(Cc2ccccc2)CC1 (stereo not given) . Reported Potency?
stdout: 14.6 µM (active)
